Origin of the recorded values: PubChem BioAssay (NCATS)

# Tested on: N-terminal Xaa-Pro-Lys N-methyltransferase 1 (Homo sapiens) (UniProt Q9BV86)
# Sequence (Q9BV86 whole entry, looked up): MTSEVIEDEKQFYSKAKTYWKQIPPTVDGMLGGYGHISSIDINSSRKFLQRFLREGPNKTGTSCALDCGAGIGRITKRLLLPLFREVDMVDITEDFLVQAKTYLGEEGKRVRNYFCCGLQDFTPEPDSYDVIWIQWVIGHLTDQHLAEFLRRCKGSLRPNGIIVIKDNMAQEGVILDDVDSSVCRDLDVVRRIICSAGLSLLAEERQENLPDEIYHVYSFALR
# Measurement notes: qHTS Assay for Inhibitors of N-terminal methyltransferase 1 (NTMT1): LOPAC validation of the NTMT1 SAHH-coupled ThioGlo3 Assay (AID 1347143);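 note: SAH from peptide methylation measured as thiol fluorescence via SAHH coupling and ThioGlo3; nearly all actives have a fitted effect of over 70% in size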; note: potency is the fitted concentration of half-maximal effect
# Condition set: recombinant NTMT1, SAHH-coupled ThioGlo3 fluorescence; series mostly up to 114 µM
Records with an inconclusive call do not appear. The source made the active and inactive calls. Calls come from the whole dose curve; as a rule, active = well fitted inhibition curve with a large enough effect; inconclusive = small, poorly fitted or top-dose-only effect; inactive = no such curve, though single readings can be large or run the other way.
Readout label: Potency

1) NCCS(=O)(=O)O
inactive
2) Clc1ccc2c(c1)C(N1CCNCC1)=Nc1ccccc1O2
inactive
3) COc1cc2nc(N(C)CCCNC(=O)C3CCCO3)nc(N)c2cc1OC (centres undefined)
39.8 µM (active)
4) Cc1ccccc1N1C(=O)c2cc(S(N)(=O)=O)c(Cl)cc2NC1C (centres undefined)
79.4 µM (active)

----------
# Tested on: Cytochrome P450 2D6 (Homo sapiens) (UniProt P10635)
# Sequence (P10635 whole entry, looked up): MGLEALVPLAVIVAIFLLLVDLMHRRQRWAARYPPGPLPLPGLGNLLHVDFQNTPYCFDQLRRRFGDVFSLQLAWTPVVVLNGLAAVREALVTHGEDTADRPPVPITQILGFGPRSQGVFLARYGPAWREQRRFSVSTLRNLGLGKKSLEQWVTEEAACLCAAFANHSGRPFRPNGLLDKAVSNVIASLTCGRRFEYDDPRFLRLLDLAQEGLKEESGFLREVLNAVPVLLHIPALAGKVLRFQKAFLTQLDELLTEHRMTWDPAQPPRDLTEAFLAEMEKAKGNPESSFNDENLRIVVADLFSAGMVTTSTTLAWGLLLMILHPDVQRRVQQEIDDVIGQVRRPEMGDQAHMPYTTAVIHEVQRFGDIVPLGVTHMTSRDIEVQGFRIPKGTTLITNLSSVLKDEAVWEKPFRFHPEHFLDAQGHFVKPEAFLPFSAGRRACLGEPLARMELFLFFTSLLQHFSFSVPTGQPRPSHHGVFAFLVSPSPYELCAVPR
# Measurement notes: Cytochrome P450 family 2 subfamily D member 6 (CYP2D6) small molecule antagonists: luciferase biochemical (cell-free) qHTS assay (AID 1645840); note: nearly all actives have a fitted effect of over 55% in size
# Condition set: P450-Glo CYP2D6 enzyme, luciferin luminescence, 1 h; series mostly up to 57.4 µM
Results filed as inconclusive are left out. Calls of active or inactive are those of the source. The call rests on the fitted dose curve; in most records, active means well fitted inhibition curve with a large enough effect in the repeat runs; inconclusive means weak or mixed curves; inactive means flat fitted curve, though single readings scatter.
Would you mind answering with one of these outcomes? T for active, F for inactive

Please review the following examples before continuing.
1) C[C@@H]1CC(=O)NN=C1c1ccc(NN=C(C#N)C#N)cc1
F
2) CN1C(C(=O)Nc2ccccn2)=C(O)c2ccccc2S1(=O)=O
F
3) CN1CCN(CCCN2c3ccccc3Sc3ccc(Cl)cc32)CC1
T
4) COc1ccccc1N1CCN(CC(O)COc2cccc3ccccc23)CC1 (configuration not stated)
T
5) Nc1ccn([C@H]2CC[C@@H](CO)O2)c(=O)n1
F

With those in mind, consider the next compound.
Q: Each compound tested received a call. Report the one for O=c1[nH]cc(F)c(=O)[nH]1 .
Ans: F

----------
# System: PAD
# Measurement notes: qHTS profiling for inhibitors of Plasmodium falciparum proliferation (AID 504749); note: nearly all actives have a fitted effect of over 60% in size; note: potency is the fitted concentration of half-maximal effect
# Condition set: P. falciparum in erythrocytes, SYBR Green DNA, 72 h; series mostly up to 28.7 µM
Records with an inconclusive call do not appear. Calls of active or inactive are those of the source. The call rests on the fitted dose curve; in most records, active means well fitted inhibition curve with a large enough effect; inconclusive means small, poorly fitted or top-dose-only effect; inactive means flat fitted curve, though single readings scatter.
Readout label: Potency

1) CCCNCC(O)COc1ccccc1C(=O)CCc1ccccc1 (stereo not drawn)
398 nM (active)
2) CC(=O)OCC(CCn1cnc2cnc(N)nc21)COC(C)=O
inactive
3) NCCCCCC(=O)O
inactive

----------
# Tested on: PC26
# Measurement notes: qHTS profiling for inhibitors of Plasmodium falciparum proliferation (AID 504749); note: nearly all actives have a fitted effect of over 60% in size
# Condition set: P. falciparum in erythrocytes, SYBR Green DNA, 72 h; series mostly up to 28.7 µM
# Protocol: NIH National Institute of Allergy and Infectious Diseases [NIAID] NIH Chemical Genomics Center [NCGC] […] Because mature erythrocytes lack DNA, only Plasmodium-derived DNA is detected. NCGC Assay Protocol Summary: The SYBR Green viability assay was adapted from a method described previously (Plouffe et al., 2008). […] The following morning, fluorescence intensity at 485(14) nm excitation and 535(25) nm emission wavelengths was measured on an EnVision (Perkin Elmer) plate reader. […]
Records with an inconclusive call do not appear. Activity calls are given as the source filed them. The call rests on the fitted dose curve; in most records, active means well fitted inhibition curve with a large enough effect; inconclusive means small, poorly fitted or top-dose-only effect; inactive means flat fitted curve, though single readings scatter.
Parameter call: string, one of active, inactive

1) CS(=O)(=O)Nc1ccc([N+](=O)[O-])cc1Oc1ccccc1
inactive
2) CS(=O)(=O)CCNCc1ccc(-c2ccc3ncnc(Nc4ccc(OCc5cccc(F)c5)c(Cl)c4)c3c2)o1
inactive
3) N[C@@H](Cc1c[nH]c2ccc(O)cc12)C(=O)O
inactive
4) Nc1nnc(-c2cccc(Cl)c2Cl)c(N)n1
inactive
5) Cc1ccc(-c2cc(C(F)(F)F)nn2-c2ccc(S(N)(=O)=O)cc2)cc1
active

Q: Which outcome was entered for the molecule Cc1cnc(C(=O)NCCc2ccc(S(=O)(=O)NC(=O)NC3CCCCC3)cc2)cn1 in this test?
Ans: inactive

Q: State the result this test recorded for CCOC(=O)c1ncn2c1CN(C)C(=O)c1cc(F)ccc1-2 .
Ans: inactive
